The values you see were collected from PubChem BioAssay AID504660.

# Target Desc: D(1A) dopamine receptor (Homo sapiens) (UniProt P21728)
# Sequence (P21728 whole entry, looked up): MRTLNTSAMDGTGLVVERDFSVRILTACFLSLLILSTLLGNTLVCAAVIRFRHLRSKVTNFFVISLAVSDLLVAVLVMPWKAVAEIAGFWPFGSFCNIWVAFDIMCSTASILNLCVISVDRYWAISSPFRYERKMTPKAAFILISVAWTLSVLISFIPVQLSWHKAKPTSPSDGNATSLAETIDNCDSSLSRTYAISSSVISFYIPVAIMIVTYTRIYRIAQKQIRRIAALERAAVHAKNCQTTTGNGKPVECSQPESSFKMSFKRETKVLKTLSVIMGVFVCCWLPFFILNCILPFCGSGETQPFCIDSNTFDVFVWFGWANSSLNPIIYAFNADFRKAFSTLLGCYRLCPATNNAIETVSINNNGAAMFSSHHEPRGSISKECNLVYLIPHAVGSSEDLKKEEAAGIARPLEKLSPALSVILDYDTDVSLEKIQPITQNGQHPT
# Test: Allosteric Agonists of the Human D1 Dopamine Receptor: qHTS; note: 0% is about no effect
# Run Parameters: HEK293 T-REx D1 cells, calcium flux, agonist mode; at 2 µM
# Procedure: NIH Chemical Genomics Center [NCGC] NIH Molecular Libraries Probe Centers Network [MLPCN] […] Freshly passaged cells are plated in 1536 well black, clear bottom plates at a density of 4000 cells/well in 3 ul of complete media containing 1x tetracycline inducer. […] Agonist read: A 10 cycle (1 second/cycle) baseline measurement is taken and then the FDSS online 1536 pintool delivers 23 nl of compound library (as well as dopamine controls) to the plate. […]
About 3,700 (1%) of roughly 360,000 compounds were called active. Cut-off read from the data, not from the text of the source: active = activation above about 30%; inactive = the rest. What follows is part of a selection rich in actives, with near analogues and random picks from the rest.
Parameter call: string, one of 1 (active), -1 (inactive)

[in] Kindly provide the recorded test outcome for the following compound: `Cc1nn(C)c(C)c1Sc1ccccc1N`
[out] 1

[in] # lookup: test call for CC(C)(C)CC(C)(C)NCC(O)COCCOc1ccc(Br)cc1 (stereo unspecified)
[out] 1

[in] Per the records of this test, what outcome belongs to `COC1=C/C(=C/c2c(N)n3nc(CC(=O)N4CCOCC4)sc3nc2=O)C=CC1=O` ?
[out] -1

[in] Given `Cc1cccc(Nc2cc(C)nc(-n3nc(C)cc3C)n2)c1` , state the outcome it received in this test.
[out] -1

[in] Test call for this compound, please: COc1ccc(OCC(O)CNCCNc2nccc(C(F)(F)F)n2)cc1 (stereo unspecified)
[out] -1

[in] Query: recorded result category for `Cc1cccc(-n2c(SCC(N)=O)nc3c(oc4ccccc43)c2=O)c1` in this test
[out] -1

[in] Hello, I am checking results. What call was entered for `C=CCC1=C/C(=C\c2c(N)n3nc(CC(=O)N4CCOCC4)sc3nc2=O)C=C(OC)C1=O` ?
[out] 1

[in] Dear colleague, could you share the recorded outcome for `O=C(O)CCC(=O)Nc1ccc(N2CCOCC2)cc1` when you have a moment?
[out] -1

[in] Please let me know the test result on file for `Cn1nc(-c2ccccc2)c(CO)c1Sc1ccccc1` .
[out] -1

[in] Per the assay record, what outcome was assigned to `Cc1ccc(-c2cc(N)n(Cc3cccc(Cl)c3)n2)cc1` ?
[out] -1

[in] Dear colleague, could you share the recorded outcome for Cc1c2cnn(-c3ccccc3)c(=O)c2c(C)n1C(C)C(=O)Nc1ccc(Br)cc1F (stereo unspecified) when you have a moment?
[out] 1

* * *

# Target Desc: D(1A) dopamine receptor (Homo sapiens)
# Test: Allosteric Agonists of the Human D1 Dopamine Receptor: qHTS; note: 0% is about no effect
# Run Parameters: HEK293 T-REx D1 cells, calcium flux, agonist mode; at 2 µM; active compounds read high
Screen size: about 360,000 compounds; about 3,700 (1%) were called active. The entries come from a sample that favours actives as a whole.
Measure Name: activation (%)
Only the number, expressed in %, is required.

[in] # assay system D(1A) dopamine receptor (Homo sapiens): give activation of `COc1cc(=O)[nH]c(=O)n1C(=O)Cc1ccccc1`
[out] 3.4

[in] Give activation; test system D(1A) dopamine receptor (Homo sapiens); compound `COc1cccc(N2C(=O)CN(Cc3ccccc3)C2=S)c1`
[out] 2.26

[in] # return activation of `CCOc1ccc(CN2CCN(Cc3c[nH]c4ccccc34)CC2)cc1` (system: D(1A) dopamine receptor (Homo sapiens))
[out] 33.4

[in] GET activation where system = D(1A) dopamine receptor (Homo sapiens) and item = CC(=O)c1ccc(OCC(O)CN2CCN(S(=O)(=O)c3cccc(Br)c3)CC2)cc1 (stereo unspecified)
[out] 0.785

[in] Fetch value of activation on D(1A) dopamine receptor (Homo sapiens) for `COc1ccc(CN2CCN(Cc3ccc(OC)c(OC)c3OC)CC2)cc1` .
[out] 1.73

[in] Output reported activation of the compound `O=C(NCCc1c[nH]c2ccccc12)C1CCN(Cc2ccc(Br)cc2)CC1` on D(1A) dopamine receptor (Homo sapiens).
[out] 35.5

[in] Specify the recorded activation for CC1(C(=O)NCCc2c[nH]c3ccccc23)C=CC2(CCCCC2)N1C(=O)c1ccccc1 (stereo unspecified) , system: D(1A) dopamine receptor (Homo sapiens).
[out] -1.33

[in] Provide activation, system D(1A) dopamine receptor (Homo sapiens), entry CC(C)c1ccc(OCC(O)CN2CCN(c3ccccn3)CC2)cc1 (stereo unspecified)
[out] 2.28

[in] Write down measured activation (D(1A) dopamine receptor (Homo sapiens)) for this compound. `Cc1cccc(C(=O)Nc2ccc(-c3nc4ccccc4s3)c(C)c2)c1`
[out] 6.34

[in] Fill: activation (D(1A) dopamine receptor (Homo sapiens)) for this compound `COc1cc(CNC2CCCC2)c(Br)cc1OCc1ccccc1`
[out] 42.3

[in] Find the measured activation of O=S(=O)(c1ccc(OCC(O)CN2CCN(c3ccccc3Cl)CC2)cc1)N1CCOCC1 (stereo unspecified) with D(1A) dopamine receptor (Homo sapiens) as test system.
[out] 105
